Sourced from PubChem BioAssay

- Tested on: TRPC4 (mouse), co-expressed with 5HT1a in HEK293
- MEASUREMENT NOTES: calcium flux potentiators in TRPC4/5HT1a cells, confirmation, counter-screen for TRPC4 potentiator project, cell-based, second counter screen, HEK293 TRPC4/5HT1a, Fluo-4 (AID 434979)
- CONDITION DESCRIPTION: Fluo-4 calcium flux, at 10 µM, serotonin added at its EC20 dose
Active and inactive are the calls of the source.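 The calls were made as follows: active = signal rise over 3 SD above mean of control wells given weak agonist, in both repeats and first screen; inactive = the rest.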
Your reply should match one of these outcome classes. 1.0 (active), 0.0 (inactive)

Before answering, review these 3 worked examples.
# COMPOUND, ANSWER LABEL
data = [
    ("CCCOc1ccc(C(=O)NNC(=S)NC(=O)c2cccs2)cc1", 0.0),
    ("COc1ccc(-c2cc(C#N)nc(N3CCNCC3)n2)cc1", 0.0),
    ("CCOC(=O)[C@@H]1CCNC[C@@H]1c1ccccc1", 0.0),
]

Ask: Tell me the recorded outcome of this test for `CN(C)CCCN(C(=O)c1ccc(S(=O)(=O)N2CCCCCC2)cc1)c1nc2ccc(F)cc2s1` .
Result: 0.0

Ask: Tell me the recorded outcome of this test for `O=C1/C(=C\c2cc(Cl)c(O)c(Cl)c2)SC(=S)N1Cc1ccccc1` .
Result: 1.0

Ask: Tell me the recorded outcome of this test for `COc1ccccc1C(=O)NNC(=S)NC(=O)c1sc2ccccc2c1Cl` .
Result: 0.0

Ask: Tell me the recorded outcome of this test for `Cc1cc(C)n(-c2nc(SCCN(C)C)c3c4c(sc3n2)CCCC4)n1` .
Result: 0.0

Ask: Tell me the recorded outcome of this test for `Cc1onc(-c2ccccc2)c1C(=O)NC(=S)NNC(=O)c1ccco1` .
Result: 0.0

Ask: Tell me the recorded outcome of this test for `O=C(O)c1ccc(-c2ccc(/C=c3/sc4nc5ccccc5n4c3=O)o2)cc1Cl` .
Result: 0.0

Ask: Tell me the recorded outcome of this test for Cc1ccn2cc(CCNC(=O)C3CC=CCC3C(=O)O)nc2c1 (stereo unspecified) .
Result: 0.0

Ask: Tell me the recorded outcome of this test for `O=c1c2ccccc2[nH]c(=S)n1Cc1cccnc1` .
Result: 0.0

---

- TESTED TARGET: Short transient receptor potential channel 4 (Mus musculus) (UniProt Q9QUQ5)
- Sequence (Q9QUQ5 whole entry, looked up): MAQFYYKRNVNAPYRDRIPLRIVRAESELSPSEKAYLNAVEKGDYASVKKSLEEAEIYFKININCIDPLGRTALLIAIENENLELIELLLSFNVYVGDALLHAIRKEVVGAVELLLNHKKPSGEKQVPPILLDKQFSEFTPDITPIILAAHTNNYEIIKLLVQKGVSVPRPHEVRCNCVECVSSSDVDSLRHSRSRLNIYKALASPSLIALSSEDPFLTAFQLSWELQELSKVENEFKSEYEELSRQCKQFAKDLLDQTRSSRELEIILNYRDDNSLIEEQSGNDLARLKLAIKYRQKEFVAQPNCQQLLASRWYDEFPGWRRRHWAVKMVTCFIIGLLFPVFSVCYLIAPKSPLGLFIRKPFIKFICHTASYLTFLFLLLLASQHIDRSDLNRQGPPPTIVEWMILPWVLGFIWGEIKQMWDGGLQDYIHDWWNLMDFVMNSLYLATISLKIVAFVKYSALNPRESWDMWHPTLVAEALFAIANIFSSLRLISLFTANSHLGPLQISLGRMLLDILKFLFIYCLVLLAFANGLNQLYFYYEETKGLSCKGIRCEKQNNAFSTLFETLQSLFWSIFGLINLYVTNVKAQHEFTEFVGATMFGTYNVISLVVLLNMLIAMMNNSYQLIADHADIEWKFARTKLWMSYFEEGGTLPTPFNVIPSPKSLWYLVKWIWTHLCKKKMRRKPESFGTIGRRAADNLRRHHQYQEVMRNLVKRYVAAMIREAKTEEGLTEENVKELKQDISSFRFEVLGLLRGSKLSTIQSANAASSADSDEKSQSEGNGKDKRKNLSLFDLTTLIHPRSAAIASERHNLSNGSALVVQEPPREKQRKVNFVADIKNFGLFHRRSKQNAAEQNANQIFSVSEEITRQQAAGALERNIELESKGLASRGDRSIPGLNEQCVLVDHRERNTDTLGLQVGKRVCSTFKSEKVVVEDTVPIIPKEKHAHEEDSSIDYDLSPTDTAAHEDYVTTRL
- MEASUREMENT NOTES: mouse TRPC4 membrane potential modulation by TRPC6 hits, confirmation, selectivity assay for TRPC6 inhibitor project, cell-based, second specificity screen, HEK293 TRPC4/mu-opioid (AID 2776)
- CONDITION DESCRIPTION: HEK293 TRPC4/MOR, membrane potential dye fluorescence, at 10 µM, channel activated by saturating DAMGO dose
This is one part of the list. Calls of active or inactive are those of the source.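 How the source made its calls: active means compounds whose fluorescence signal differed from control wells by over 3 SD, either direction, in both duplicate plates; inactive means the rest.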
Your reply should match one of these outcome classes. y (active), n (inactive)

Before answering, review these 5 worked examples.
# COMPOUND, ANSWER LABEL
rows = [
    ("CCCCCOc1ccc(CSC2=NCCN2)cc1[N+](=O)[O-]", "y"),
    ("COc1ccccc1C1SCCN1C(=O)c1ccc([N+](=O)[O-])cc1 (stereo unspecified)", "n"),
    ("CCN(CC)CCn1c2ccc(Cl)cc2c2nc(C)sc21", "y"),
    ("O=C1c2ccccc2C(=O)c2c1cccc2N1CCN(Cc2ccccc2)CC1", "n"),
    ("COc1ccc(CNC(=O)c2cc3c(=O)n4ccccc4nc3n(CC3CCCO3)c2=N)cc1 (stereo unspecified)", "n"),
]

Query compound follows.
Ask: Tell me the recorded outcome of this test for `Cn1c(=O)n(C)c2cc(C(=O)Nc3ccc4c(c3)OCO4)ccc21` .
Result: n
